Target: Serotonin 3 (5-HT3) receptor (Rattus norvegicus, UniProt P35563+Q9JJ16)
Sequence (P35563 whole entry): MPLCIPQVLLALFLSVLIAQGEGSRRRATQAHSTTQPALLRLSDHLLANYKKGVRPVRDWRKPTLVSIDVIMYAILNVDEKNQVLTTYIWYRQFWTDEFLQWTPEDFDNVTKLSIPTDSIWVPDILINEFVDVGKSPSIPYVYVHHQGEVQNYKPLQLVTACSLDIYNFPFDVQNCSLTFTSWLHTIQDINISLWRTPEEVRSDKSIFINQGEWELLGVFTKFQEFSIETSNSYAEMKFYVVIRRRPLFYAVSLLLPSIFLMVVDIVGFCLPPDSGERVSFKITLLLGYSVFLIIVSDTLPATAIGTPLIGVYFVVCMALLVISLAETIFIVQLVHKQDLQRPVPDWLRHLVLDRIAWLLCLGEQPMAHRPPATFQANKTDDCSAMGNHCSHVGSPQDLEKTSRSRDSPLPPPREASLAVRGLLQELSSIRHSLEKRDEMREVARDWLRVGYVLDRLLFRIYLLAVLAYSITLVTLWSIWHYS
Sequence (Q9JJ16 whole entry): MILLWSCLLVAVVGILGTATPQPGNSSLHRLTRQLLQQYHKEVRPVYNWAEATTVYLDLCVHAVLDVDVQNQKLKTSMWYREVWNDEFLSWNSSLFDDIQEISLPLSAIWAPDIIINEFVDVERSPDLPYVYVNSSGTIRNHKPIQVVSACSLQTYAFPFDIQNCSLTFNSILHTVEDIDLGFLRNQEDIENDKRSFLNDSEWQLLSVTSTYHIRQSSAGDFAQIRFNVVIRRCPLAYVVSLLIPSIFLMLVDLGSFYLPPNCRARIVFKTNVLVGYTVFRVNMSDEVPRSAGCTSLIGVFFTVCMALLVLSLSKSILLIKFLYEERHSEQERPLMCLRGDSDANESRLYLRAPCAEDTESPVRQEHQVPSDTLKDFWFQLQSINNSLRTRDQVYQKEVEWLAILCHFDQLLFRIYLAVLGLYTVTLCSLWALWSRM
Assay: Inhibition of [3H]GR-65630 binding to rat cortical membrane serotonin 3 receptor
pIC50: −log10 of the molar value.
Kindly return fulfilled if reported pIC50 is no lower than 7; return not fulfilled if it is lower.

Answered cases to consult:
{"columns": ["molecule", "answerLabel"],
 "data": [
  ["Cc1nn2ncccc2c1C(=O)NC1CC2CCCC(C1)N2C (configuration not stated)", "not fulfilled"],
  ["CN1C2CCC1CC(NC(=O)c1cnn3ccccc13)C2 (configuration not stated)", "fulfilled"],
  ["CN1C2CCCC1CC(NC(=O)c1cnn3ccccc13)C2 (configuration not stated)", "not fulfilled"],
  ["Cc1nn2ccccc2c1C(=O)NC1CC2CCC(C1)N2C (configuration not stated)", "fulfilled"],
  ["O=C(N[C@H]1CN2CCC1C2)c1cnn2ccccc12 (some centres not stated)", "fulfilled"],
  ["CN1[C@@H]2CC[C@H]1C[C@@H](OC(=O)c1c[nH]c3ccccc13)C2", "fulfilled"]
]}

pIC50 >= 7 for CN1C2CCC1CC(OC(=O)c1cnn3ccccc13)C2 (configuration not stated) ?
fulfilled

pIC50 >= 7 for CN1C2CCC1CC(NC(=O)c1cnn3ncccc13)C2 (configuration not stated) ?
not fulfilled

###

Target: Serotonin 3 (5-HT3) receptor (Rattus norvegicus, UniProt P35563+Q9JJ16)
Experiment: Tested for inhibition of binding of [3H]GR-65630 to rat cortical membranes, expressed as IC50
Assay type: cell membranes, Membrane
quantityMeasured: pIC50
Scale for pIC50: -log10 of concentration given in mol/L; no unit attached.

Which value of pIC50 has been reported for CN1C2CCCC1CC(NC(=O)c1cnn3ncccc13)C2 (stereo unspecified) in the records?
6.09
